- Tested on: Staphylococcus aureus
- experiment_notes: Antibacterial activity against Staphylococcus aureus ATCC 29213
- Assay type: functional
measured_property: MIC (µg/mL)
Numeric only. Scale: µg/mL

Consider the worked cases shown below.
# query_smiles, MIC / µg/mL
rows = [
    ("O=C(O)c1cn(C2CC2)c2cc(N3CCNCC3)c(F)cc2c1=O", 0.5),
    ("CC[C@@H](C(=O)[C@@H](C)[C@@H](O)[C@H](C)[C@@H]1O[C@@H]([C@@H](CC)C(=O)NCCCCN)CC[C@@H]1C)[C@H]1O[C@]2(C=C[C@@H](O)[C@]3(CC[C@@](C)([C@H]4CC[C@](O)(CC)[C@H](C)O4)O3)O2)[C@H](C)C[C@@H]1C", 64),
    ("CC[C@@H](C(=O)[C@@H](C)[C@@H](O)[C@H](C)[C@@H]1O[C@@H]([C@@H](CC)C(=O)NCCOCCO)CC[C@@H]1C)[C@H]1O[C@]2(C=C[C@@H](O)[C@]3(CC[C@@](C)([C@H]4CC[C@](O)(CC)[C@H](C)O4)O3)O2)[C@H](C)C[C@@H]1C", 64),
    ("CC[C@@H](C(=O)[C@@H](C)[C@@H](O)[C@H](C)[C@@H]1O[C@@H]([C@@H](CC)C(=O)NCCS)CC[C@@H]1C)[C@H]1O[C@]2(C=C[C@@H](O)[C@]3(CC[C@@](C)([C@H]4CC[C@](O)(CC)[C@H](C)O4)O3)O2)[C@H](C)C[C@@H]1C", 32),
]

We now examine a further compound.
-- ask Data request, read-out MIC, for "CC[C@@H](C(=O)[C@@H](C)[C@@H](O)[C@H](C)[C@@H]1O[C@@H]([C@@H](CC)C(=O)O)CC[C@@H]1C)[C@H]1O[C@]2(C=C[C@@H](O)[C@]3(CC[C@@](C)([C@H]4CC[C@](O)(CC)[C@H](C)O4)O3)O2)[C@H](C)C[C@@H]1C"
-- reply 4
